System: LOX IMVI melanoma
assayDetails: NCI tumour cell line growth inhibition, 48 h; in the data active means GI50 below about 0.43 µM; inactive means the rest
Your response should consist of one outcome taken from active, inactive

>>> print(df.to_string())
                                   molecule  classname
0  COC(=O)c1cc2c([nH]c3ccccc32)c(-c2nc3cc(N(S(=O)(=O)c4ccc(C)cc4)S(=O)(=O)c4ccc(C)cc4)c(OC)cc3cc2CO)n1   inactive

IN: Hi team, can someone confirm the assay call for CCCCc1ccc(C(N)=O)nc1 ?
OUT: inactive

IN: Hi team, can someone confirm the assay call for COc1ccc(N2CCN(CC(=O)N3CCN(c4nnc(-c5ccc(Cl)cc5)c(-c5ccc(Cl)cc5)n4)CC3)CC2)cc1 ?
OUT: inactive

IN: Hi team, can someone confirm the assay call for C#Cc1cccc(NC(=O)Nc2cccc(NC(=O)CCl)c2)c1 ?
OUT: inactive

IN: Hi team, can someone confirm the assay call for CCN(CC)CCCC(C)NC(=S)N/N=C(\C)c1ccccn1 (centres undefined) ?
OUT: inactive

IN: Hi team, can someone confirm the assay call for Cc1nn(-c2ccccc2)c2ncc3c(c12)C(=O)N(Cc1ccccc1)C3=O ?
OUT: inactive

* * *

System: OVCAR-5 ovarian
assayDetails: NCI tumour cell line growth inhibition, 48 h
Recorded TGI by entry
State the answer as a number, implicitly in µM.

Consider the worked cases shown below.
>>> df
                                   compound  recordedvalue
0  COc1ccc(C2CC(c3cccc(Nc4ccnc5cc(Cl)ccc45)c3)=NN2c2ccc(Cl)cc2)cc1 (stereo unspecified)             87
1  CN(C)CCCn1c2c(c3ccncc3c1=O)C(=O)c1ccccc1-2           9.25
2  CN(C)CCCn1c2c(c3ccc([N+](=O)[O-])cc3c1=O)C(=O)c1ccccc1-2             49
3  COc1ccc(N=Nc2ccc3oc(=O)c(C(=O)Nc4ccc(OC)cc4)cc3c2)cc1           50.6
4  N#CC1=C(N)Oc2c(ccc3ccccc23)C1c1ccccc1Cl (stereo unspecified)           18.8

Consider now this further compound.
IN: # query: TGI of entry O=C(NC(c1ccccc1)C(O)C(=O)OCc1ccc2c(c1)C(=O)c1ccccc1C2=O)c1ccccc1 (stereo unspecified)
OUT: 79.9

* * *

System: NCI-H23 lung
assayDetails: NCI tumour cell line growth inhibition, 48 h; in the data active means GI50 below about 0.43 µM; inactive means the rest
Your response should consist of one outcome taken from active, inactive

These solved cases illustrate the format of a correct answer.
compound	className
NCCN.O=N[O-].O=N[O-].O=N[O-].O=N[O-].[Co+3].[K+]	inactive
CCN(CC)CCCC(C)NC(=S)N/N=C(\C)c1ccccn1 (stereo not drawn)	inactive
Nc1cc(N)c2nc(-c3ccccc3)c(Sc3ccc(F)cc3)nc2c1	inactive

IN: Hi team, can someone confirm the assay call for CN(C)CCCn1c2c(c3ccc([N+](=O)[O-])cc3c1=O)C(=O)c1ccccc1-2 ?
OUT: inactive

IN: Hi team, can someone confirm the assay call for Cc1cccc(NC(=O)c2sc3nc4c(cc3c2N)CCC4)c1C ?
OUT: inactive

IN: Hi team, can someone confirm the assay call for Oc1c(Br)cc(Br)c2cccnc12 ?
OUT: inactive

IN: Hi team, can someone confirm the assay call for COc1ccc(-c2nccn2-c2cc(OC)c(OC)c(OC)c2)cc1 ?
OUT: inactive

IN: Hi team, can someone confirm the assay call for COc1ccc(/C(C)=C(\c2ccc(Cl)cc2)c2ccc(OCCN3CCCCC3)cc2)cc1F ?
OUT: inactive

IN: Hi team, can someone confirm the assay call for CNCc1ccc(C)c(NC(=O)c2ccc(Nc3nc(-c4ccccc4)c4ccccc4n3)cc2)c1 ?
OUT: inactive

IN: Hi team, can someone confirm the assay call for Cc1nn(-c2ccccc2)c2ncc3c(c12)C(=O)N(Cc1ccccc1)C3=O ?
OUT: inactive

IN: Hi team, can someone confirm the assay call for COc1ccc(/C=C2\CC(C)CC3C2=NN(C(C)=O)C3c2ccc(OC)c(OC)c2)cc1OC (stereo not drawn) ?
OUT: inactive

IN: Hi team, can someone confirm the assay call for COc1ccc(C2CC(c3ccc(OC)c(OC)c3)=NN2C(=O)c2cc(OC)c(OC)c(OC)c2)cc1 (stereo not drawn) ?
OUT: inactive

IN: Hi team, can someone confirm the assay call for Cc1nc2cc(NC(=O)CN3CCN(CCN4C(=O)c5cccc6cccc(c56)C4=O)CC3)ccc2s1 ?
OUT: inactive

IN: Hi team, can someone confirm the assay call for CN(C)CCCn1c2c(c3ccncc3c1=O)C(=O)c1ccccc1-2 ?
OUT: inactive

IN: Hi team, can someone confirm the assay call for CCS(=O)(=O)Nc1ccc(Oc2ccc(F)cc2F)c(-c2cn(C)c(=O)c3[nH]ccc23)c1 ?
OUT: active

IN: Hi team, can someone confirm the assay call for COc1ccc(N2CCN(CC(=O)N3CCN(c4nnc(-c5ccc(Cl)cc5)c(-c5ccc(Cl)cc5)n4)CC3)CC2)cc1 ?
OUT: inactive

IN: Hi team, can someone confirm the assay call for COc1cc2c(cc1Nc1nc(Nc3ccsc3C(N)=O)c3cc[nH]c3n1)N(C(=O)CN(C)C)CCC2 ?
OUT: active

IN: Hi team, can someone confirm the assay call for CC(=O)OC1C(OC/C2=C/C3[C@@H](C(C)C)CC=C(C)[C@@H]3CC(OC(=O)/C=C/c3cn(C)cn3)[C@]3(C)C=C[C@@]2(O)O3)OCC(O)C1O (stereo partly drawn) ?
OUT: active
